# Tested on: Fusarium graminearum
# experimental protocol: Fungicidal activity against Fusarium graminearum assessed as growth inhibition at 50 ppm after 48 hr relative to untreated control
# Type: functional
# run parameters: read-out: GI
# binarize inhibition of growth at 50 ppm: threshold 40% inclusive, high side yes, low side no

1) N=C1S/C(=C\c2ccccc2Cl)C(=O)N1c1nc(-c2ccccc2)cs1: no
2) N=C1S/C(=C\c2cccc([N+](=O)[O-])c2)C(=O)N1c1nc(-c2ccc(Cl)cc2)cs1: yes
3) N=C1S/C(=C\c2ccccc2[N+](=O)[O-])C(=O)N1c1nc(-c2ccccc2)cs1: yes
4) N=C1SCC(=O)N1c1nc(-c2ccccc2)cs1: no
5) N=C1S/C(=C\c2ccccc2Cl)C(=O)N1c1nc(-c2ccc([N+](=O)[O-])cc2)cs1: no
6) N=C1SCC(=O)N1c1nc(-c2ccc(Cl)cc2Cl)cs1: yes
7) N=C1S/C(=C\c2cccc([N+](=O)[O-])c2)C(=O)N1c1nc(-c2ccccc2)cs1: no
8) N=C1SCC(=O)N1c1nc(-c2ccc(Cl)cc2)cs1: no
9) N=C1S/C(=C\c2ccccc2)C(=O)N1c1nc(-c2cc(F)c(Cl)cc2Cl)cs1: no
10) N=C1S/C(=C\c2cccc([N+](=O)[O-])c2)C(=O)N1c1nc(-c2cc(F)c(Cl)cc2Cl)cs1: yes
11) N=C1S/C(=C\c2ccccc2[N+](=O)[O-])C(=O)N1c1nc(-c2ccc(Cl)cc2)cs1: yes
12) N=C1SCC(=O)N1c1nc(-c2cc(F)c(Cl)cc2Cl)cs1: no
13) N=C1S/C(=C\c2ccccc2[N+](=O)[O-])C(=O)N1c1nc(-c2ccc([N+](=O)[O-])cc2)cs1: no
14) N=C1S/C(=C\c2cccc([N+](=O)[O-])c2)C(=O)N1c1nc(-c2ccc([N+](=O)[O-])cc2)cs1: yes
15) N=C1S/C(=C\c2ccccc2Cl)C(=O)N1c1nc(-c2ccc(Cl)cc2)cs1: no
16) N=C1SCC(=O)N1c1nc(-c2ccc([N+](=O)[O-])cc2)cs1: no
17) N=C1S/C(=C\c2ccccc2[N+](=O)[O-])C(=O)N1c1nc(-c2cc(F)c(Cl)cc2Cl)cs1: yes
